Protocol: cells
Reported conditions: Homo sapiens, DLD-1, 240 h, read-out: Cell viability assay IC50 (nM), CTG assay, CellTiter Glo, read on Day 10; cell line not given
So basically: is IC50 under 6 nM? Then Y. Not under? Then N.

Dear colleague, could you confirm whether IC50 of `COc1cnc(Cl)c(F)c1-c1cc(C)ncc1C(=O)Nc1nc2cnc(-c3c(C)cnn3C)cc2s1` falls below 6 nM? Thanks.
Y

Dear colleague, could you confirm whether IC50 of `COc1cnc(C(F)F)cc1-c1cc(C)ncc1C(=O)Nc1nc2cnc(-c3c(C)nnn3C)cc2s1` falls below 6 nM? Thanks.
Y

Dear colleague, could you confirm whether IC50 of `COc1cnc(Cl)cc1-c1cc(C)ncc1C(=O)Nc1nc2cnc(-c3c(F)cnn3CCO)cc2s1` falls below 6 nM? Thanks.
Y

Dear colleague, could you confirm whether IC50 of `COc1cnc(Cl)cc1-c1cc(C)ncc1C(=O)Nc1nc2cnc(-c3nnn(C)n3)cc2s1` falls below 6 nM? Thanks.
N

Dear colleague, could you confirm whether IC50 of COc1cnc(Cl)cc1-c1cnccc1C(=O)Nc1nc2ccc(C3=CCC(O)CC3)nc2s1 (stereo not shown) falls below 6 nM? Thanks.
N

Dear colleague, could you confirm whether IC50 of `COc1cnc(Cl)cc1-c1cc(C)ncc1C(=O)Nc1nc2ccc(N3CC[C@@H](O)C[C@H]3C)nc2s1` falls below 6 nM? Thanks.
N

Dear colleague, could you confirm whether IC50 of `COc1cnc(Cl)cc1-c1cc(C)ncc1C(=O)Nc1nc2cnc(-c3c(Cl)cnn3C)cc2s1` falls below 6 nM? Thanks.
Y
